target: D(2) dopamine receptor (Homo sapiens, UniProt P14416); assay: Binding affinity against [3H]U-86,170-labeled dopamine receptor D2 in cloned CHO cells
Sequence (P14416 whole entry): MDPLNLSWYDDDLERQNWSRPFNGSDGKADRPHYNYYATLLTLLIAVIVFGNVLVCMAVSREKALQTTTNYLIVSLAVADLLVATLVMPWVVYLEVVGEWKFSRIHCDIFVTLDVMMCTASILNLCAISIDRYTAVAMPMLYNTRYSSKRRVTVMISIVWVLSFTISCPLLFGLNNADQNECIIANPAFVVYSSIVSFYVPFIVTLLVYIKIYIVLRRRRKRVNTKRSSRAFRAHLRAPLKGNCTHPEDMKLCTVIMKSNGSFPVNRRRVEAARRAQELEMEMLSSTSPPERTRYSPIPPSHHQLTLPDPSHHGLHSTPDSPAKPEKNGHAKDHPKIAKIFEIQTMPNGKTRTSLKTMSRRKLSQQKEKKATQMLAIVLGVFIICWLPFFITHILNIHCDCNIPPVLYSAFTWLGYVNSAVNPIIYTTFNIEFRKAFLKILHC
Measured pKi values are reported for all entries that follow.
Answer as the number alone; pKi is minus log10 of concentration in mol/L.

>  <compound>
C=CCN1CC[C@@H]2Cc3c(O)cccc3C[C@H]21 (racemic)

>  <result_type>
pKi

>  <reading>
6.63

$$$$

Item under review: CCCN1CC[C@H]2Cc3c(O)cccc3C[C@@H]21 . Reported pKi?
6.04

Also C=CCN1CC[C@@H]2Cc3c(O)cccc3C[C@H]21 ?
9.52

Also C=CCN1CC[C@H]2Cc3c(O)cccc3C[C@@H]21 ?
6.63

Also CCCN1CC[C@@H]2Cc3c(O)cccc3C[C@H]21 (racemic) ?
8.62

Also CCCN1CC[C@@H]2Cc3c(cccc3OC)C[C@H]21 ?
7.12
